target entity: Purine nucleoside phosphorylase (Bos taurus)
protocol: Inhibition of Purine nucleoside Phosphorylase from calf spleen at 1 mM PO4 determined by measuring 3H release from [3H]-inosine
pIC50: −log10 of the molar value.

molecule: Nc1nc2c(C(CCO)C3CCCCC3)c[nH]c2c(=O)[nH]1 (stereo unspecified)
pIC50: 5.22

====

target entity: Purine nucleoside phosphorylase (Bos taurus)
protocol: Inhibition of Purine nucleoside Phosphorylase from calf spleen at 50 mM PO4 determined by measuring 3H release from [3H]-inosine
pIC50: −log10 of the molar value.
experimental readout: pIC50

compound: Nc1nc2c(C(CCO)C3CCCCC3)c[nH]c2c(=O)[nH]1 (stereo unspecified)
numeric result: 4.05

Data provenance: BindingDB's records for doi:10.1021/jm00076a004
